biological target: CXCR1 (Homo sapiens); construct: endogenous in cells; host or cells: human polymorphonucleate leukocytes (PMNs) isolated from blood of healthy volunteers; test: IL-8 induced PMN chemotaxis (CXCR1); format: cell-based; details: compound c = 10^−8 M; IL-8 induced human PMN chemotaxis
Sequence (P25024 whole entry): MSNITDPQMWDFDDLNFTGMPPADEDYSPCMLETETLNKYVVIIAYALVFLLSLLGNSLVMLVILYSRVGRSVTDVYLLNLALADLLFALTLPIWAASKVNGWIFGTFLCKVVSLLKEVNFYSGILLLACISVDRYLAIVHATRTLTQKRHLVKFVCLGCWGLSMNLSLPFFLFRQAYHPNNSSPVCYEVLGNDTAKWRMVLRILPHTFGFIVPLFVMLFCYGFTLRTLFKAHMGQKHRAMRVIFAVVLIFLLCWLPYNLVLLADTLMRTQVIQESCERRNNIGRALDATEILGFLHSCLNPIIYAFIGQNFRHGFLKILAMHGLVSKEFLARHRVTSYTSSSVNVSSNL
Record class 1 whenever inhibition at 0.01 µM is at 60% or higher; record class 0 when lower.

Consider the worked cases shown below.
CC(=O)c1ccc(CC(=O)NS(C)(=O)=O)n1C ... class 0
CC(C)C(=O)c1ccc(CC(=O)O)n1C ... class 0
CC(=O)c1ccc(CC(N)=O)n1C ... class 0
CCC(=O)c1cccc(CC(=O)O)c1Cl ... class 1
Cc1c(CC(=O)O)cccc1C(C)C ... class 1

query: Determine whether this molecule has inhibition at 0.01 µM no lower than 60%: `Cc1cc(CC(C)C)ccc1CC(=O)NS(C)(=O)=O`
result: class 1
